Recorded measurements of pH (48 hrs), one per entry
assay: Calcium salts, physical/chemical attributes in orange juice, 350 mg/100 mL calcium load; format: physicochemical; conditions: 48 hrs
QUANTITY_KIND: pH (48 hrs)

[
  {
    "COMPOUND": "O=P([O-])([O-])O.[Ca+2] [dicalcium phosphate anhydrous]",
    "REPORTED_MEASUREMENT": 4.04
  },
  {
    "COMPOUND": "O.O.[Ca+2].[Cl-].[Cl-] [calcium chloride dihydrate]",
    "REPORTED_MEASUREMENT": 3.88
  },
  {
    "COMPOUND": "O.O=P([O-])(O)O.O=P([O-])(O)O.[Ca+2] [monocalcium phosphate monohydrate]",
    "REPORTED_MEASUREMENT": 3.76
  },
  {
    "COMPOUND": "O.O.O.O=C([O-])/C=C/C(=O)[O-].[Ca+2] [calcium fumarate trihydrate]",
    "REPORTED_MEASUREMENT": 3.99
  },
  {
    "COMPOUND": "O.O.O=P([O-])([O-])O.[Ca+2] [dicalcium phosphate dihydrate]",
    "REPORTED_MEASUREMENT": 4.17
  },
  {
    "COMPOUND": "O.O.O=C([O-])[C@H](O)[C@@H](O)C(=O)[O-].[Ca+2] [calcium L-tartrate dihydrate]",
    "REPORTED_MEASUREMENT": 4.17
  },
  {
    "COMPOUND": "O=C([O-])CC(O)C(=O)[O-].[Ca+2] (centres unmarked) [calcium malate]",
    "REPORTED_MEASUREMENT": 4.15
  },
  {
    "COMPOUND": "N[C@@H](CCC(=O)[O-])C(=O)[O-].O.O.O.O.[Ca+2] [calcium L-glutamate tetrahydrate]",
    "REPORTED_MEASUREMENT": 4.42
  }
]
